For each entry below, report its pKd value.
tgt: T1, human/cynomolgus monkey ROR1 protein (Acro Biosystems, Cat. No.: RO1-H522y) (human/cynomolgus monkey, UniProt Q01973 30-403)
T1 construct: Bought SPR analyte
assay_comment: SPR (Biacore), antibody captured on anti-hIgG CM5 chip, ROR1 protein as analyte, 1:1 model
Give bare numbers, as −log10 of the molar value.

UC-961 (antibody, V domains shown) VH: QVQLQESGPGLVKPSQTLSLTCTVSGYAFTAYNIHWVRQAPGQGLEWMGSFDPYDGGSSYNQKFKDRLTISKDTSKNQVVLTMTNMDPVDTATYYCARGWYYFDYWGHGTLVTVSS VL: DIVMTQTPLSLPVTPGEPASISCRASKSISKYLAWYQQKPGQAPRLLIYSGSTLQSGIPPRFSGSGYGTDFTLTINNIESEDAAYYFCQQHDESPYTFGEGTKVEIK	7.69

Items follow; give pKd for each.
1. ch29H5D8 (antibody, human IgG1, kappa, V domains shown, also called chimeric antibody of m29H5D8) VH: EVQLQQSGAELARPGASVKLSCKASGYTFTNYGISWVKQRTGQGLEWIGEIYPRSVNTYYSAKFKGKATLTADKSSSTAYMELRSLTSEDSAVYFCARHYYGSSLDYWGQGTTLTVSS VL: DIVLTQSPASLSVATGEKVTIRCITSSDIEDDMNWYQQKPGEPPKLLISEGNSLRPGVPSRFSSSGYGTDFVFTIENTLSEDVADYYCLQSDNIFTFGSGTKLEIKR
2. ch3G9B1 (antibody, human IgG1, kappa, V domains shown, also called chimeric antibody of m3G9B1) VH: QVQLQQSGTELARPGASVKLSCKASGYTFTSYGITWVKQRTGQGLEWIGEIYPRSGNTYFNEKFKGKATLTADKSSSTAYMELRSLTSEDSAVYFCARDRTGTGVDDYWGQGTTLTVSS VL: DIVLTQSPASLSMAIGEKVTIRCITNTDIDDDMSWYQQKPGEPPNLLISEGNTLRPGVPSRFSSSGYGRDFVFTIENMLSEDVADYYCLQSNNLPYTFGGGTKLEIKR
3. ch135A2B10 (antibody, human IgG1, kappa, V domains shown, also called chimeric antibody of m135A2B10) VH: DVKLVESGGGLVTPEGSLKLSCAASGFAFSTYGMAWVRQTPEKRLEWVASIHKGGFSTYYPDNVKGRFTISRDNDKNTLYLQMSSLKSEDTAMYYCIRHDWDGAMDYWGQGTSVTVSS VL: DIVLTQSPSSMYASLGERVTITCKASQDINSYLNWFQQKPGKSPKTLIYRANRLVDGVPSRFSGSGSGQDYSLTISSLEYEDLGIYYCLQFDEFPYTFGGGTKLEIKR

1. 9.17
2. 7.57
3. 9.23

The values you see were collected from patent EP4772535A1.
